# System: SK-OV-3 ovarian
# Test Protocol: NCI-60 one-dose screen, 48 h (100 = growth as untreated, 0 = no growth, -100 = all killed)
# Experimental Context: 10 µM unless noted
About 83,000 compounds went through this panel and 20% of them were active in at least one assay; those are over-represented in the sample as a whole. Activity calls are given as the source filed them. The calls were made as follows: active = growth percent below 10; inactive = the rest.
For each entry below, report its growth value.

growth recorded for this compound, C/C(=N\O)c1ccccn1 , is 109% (inactive)

growth recorded for this compound, Cc1ccc(OC(=O)c2ccccc2)cc1 , is 107% (inactive)

growth recorded for this compound, O=S(=O)(O)c1ccc(O)c(C2CCCCC2)c1 , is 97.1% (inactive)

growth recorded for this compound, c1ccc(Oc2c3ccccc3nc3ccccc23)cc1 , is 39% (inactive)

growth recorded for this compound, C=C(C)[C@@H]1CC[C@]2(CO)CC[C@]3(C)[C@H](CC[C@@H]4[C@@]5(C)CC[C@H](O)C(C)(C)[C@@H]5CC[C@]43C)[C@@H]12 , is 41.3% (inactive)

growth recorded for this compound, COC(=O)c1cccc([N+](=O)[O-])c1 , is 115% (inactive)

growth recorded for this compound, CC(O)C(F)(F)C(F)(F)C(F)(F)F (stereo unspecified) , is 118% (inactive)

growth recorded for this compound, FC(F)(F)c1cc(NC2=NCCN=C(Nc3cc(C(F)(F)F)cc(C(F)(F)F)c3)SS2)cc(C(F)(F)F)c1 , is 79.5% (inactive)

growth recorded for this compound, CN(C)c1ccc(O)c2c1CC1CC3C(N(C)C)C(=O)C(C(N)=O)=C(O)C3(O)C(=O)C1=C2O (stereo unspecified) , is 45.2% (inactive)

growth recorded for this compound, CCOc1ccc(C(=O)O)cc1 , is 98.8% (inactive)

growth recorded for this compound, CCOP(=O)(NC(c1ccccc1)c1ccccc1)OCC , is 107% (inactive)

growth recorded for this compound, Nc1ncnc2c1ncn2C1OC(CO)C2OC21 (stereo unspecified) , is 105% (inactive)

growth recorded for this compound, CC(=O)NC(CCC(=O)c1ccccc1)C(=O)O (stereo unspecified) , is 87.5% (inactive)

growth recorded for this compound, O=C(CCCl)OCCOc1ccccc1 , is 100% (inactive)

growth recorded for this compound, O=C(O)c1ccc(OCc2ccccc2)cc1 , is 98.8% (inactive)

growth recorded for this compound, Nc1cc2c(cc1Cl)C(=O)c1ccccc1C2=O , is 39.1% (inactive)

growth recorded for this compound, O=C1Nc2ccccc2/C1=C\c1ccccc1O , is 94.7% (inactive)

growth recorded for this compound, O=C(OCC1CCCO1)c1ccc([N+](=O)[O-])cc1 (stereo unspecified) , is 97.9% (inactive)

growth recorded for this compound, CC1CCC(C)(C)c2ccccc21 (stereo unspecified) , is 101% (inactive)

growth recorded for this compound, Nc1cccc2cccc(O)c12 , is 100% (inactive)

growth recorded for this compound, NC(=O)NCCO , is 110% (inactive)

growth recorded for this compound, CCOc1ccc(C(=O)NCC(C)C)cc1 , is 99.7% (inactive)

growth recorded for this compound, CC(=O)N(C)N=Nc1ccc(C)cc1 , is 110% (inactive)

growth recorded for this compound, Clc1ccc(C(SCc2ccccc2)SCc2ccccc2)cc1 , is 94.9% (inactive)

growth recorded for this compound, O=C1C=Cc2ccccc2/C1=C/c1[nH]c(=O)[nH]c1O , is 32.8% (inactive)

growth recorded for this compound, CN(CCCN(C)CCC1CCCCC1)CCC1CCCCC1 , is 58.9% (inactive)

====

# Test system: SK-MEL-28 melanoma
# Test Protocol: NCI-60 one-dose screen, 48 h (100 = growth as untreated, 0 = no growth, -100 = all killed)
# Experimental Context: 10 µM unless noted
The panel holds about 83,000 compounds, 20% with a hit somewhere; the sample as a whole holds those more often.
Measurement Kind: growth (%)
Give the value in % but do not write % after it.

growth recorded for this molecule, Cn1c(=O)c2[nH]c(CCCCC(=O)O)nc2n(C)c1=O , is 118

growth recorded for this molecule, CC(C)(C)[Si](C)(C)OCC1OC(n2cnc3c(N)ncnc32)CC1OS(C)(=O)=O (stereo not given) , is 105

growth recorded for this molecule, CC(=O)NC(CCC(=O)c1ccccc1)C(=O)O (stereo not given) , is 105

growth recorded for this molecule, CC(=O)[C@@]1(O)CC[C@H]2[C@@H]3CC[C@@H]4CC(=O)CC[C@]4(C)[C@H]3[C@@H](O)C[C@@]21C , is 99.4

growth recorded for this molecule, Cc1cc(=O)n(Nc2ccccc2)c(O)c1C#N , is 111

====

# Test system: OVCAR-3 ovarian
# Test Protocol: NCI-60 one-dose screen, 48 h (100 = growth as untreated, 0 = no growth, -100 = all killed)
# Experimental Context: 10 µM unless noted
About 83,000 compounds went through this panel and 20% of them were active in at least one assay; those are over-represented in the sample as a whole. Activity calls are given as the source filed them. Rule for the calls: active = growth percent below 10; inactive = the rest.
Measurement Kind: growth

growth recorded for this compound, C=C1CC2(OC1=O)C(=O)N(C)c1ccc(I)cc12 (stereo unspecified) , is -96.9% (active)

growth recorded for this compound, Cc1cc(=O)n(Nc2ccccc2)c(O)c1C#N , is 98.6% (inactive)

growth recorded for this compound, CSCC[C@@H]1C(=O)N(C)[C@H](C(C)(C)C)N1C(=O)c1ccccc1 , is 103% (inactive)

growth recorded for this compound, CC(=O)OCC1OC(n2cnc3c(=S)nc(N)[nH]c32)C(OC(C)=O)C1OC(C)=O (stereo unspecified) , is 83.4% (inactive)

growth recorded for this compound, COc1ccc(C(=O)C(=O)c2ccccc2)cc1 , is 108% (inactive)

growth recorded for this compound, O=C(Nc1c(Cl)cc(Cl)cc1Cl)ON=C1CCCCC1 , is 105% (inactive)

====

For each entry below, report its growth value.
# Test system: EKVX NSCLC
# Test Protocol: NCI-60 one-dose screen, 48 h (100 = growth as untreated, 0 = no growth, -100 = all killed)
# Experimental Context: 10 µM unless noted
The panel holds about 83,000 compounds, 20% with a hit somewhere; the sample as a whole holds those more often. Activity calls are given as the source filed them. Rule for the calls: active = growth percent below 10; inactive = the rest.

growth recorded for this compound, Cc1onc(-c2c(F)cccc2Cl)c1-c1ncc(-c2ccc(Br)cc2)o1 , is 46% (inactive)

growth recorded for this compound, O=c1nc(Nc2cccc(Cl)c2)oc2cc(Cl)oc(=O)c12 , is 116% (inactive)

growth recorded for this compound, NNc1ncccn1 , is 102% (inactive)

growth recorded for this compound, Clc1ccc(C(SCc2ccccc2)SCc2ccccc2)cc1 , is 89.9% (inactive)

growth recorded for this compound, CCCCCC/C=C\CCCCCCCCCc1cc(O)cc(OC)c1O , is 14.5% (inactive)

growth recorded for this compound, NNC(=O)CCCCl , is 98.6% (inactive)

growth recorded for this compound, Cc1cc(CO)c(O)c(CO)c1 , is 106% (inactive)

growth recorded for this compound, c1cc(CNCCNCc2ccncc2)ccn1 , is 99.6% (inactive)

growth recorded for this compound, Cc1ccc2nc(N)nnc2c1 , is 113% (inactive)

growth recorded for this compound, CCOC(=O)Nc1nccs1 , is 99.4% (inactive)

growth recorded for this compound, O=S(=O)(O)C(C(I)I)S(=O)(=O)O , is 112% (inactive)

growth recorded for this compound, C=CC(=O)OC1CCC(C(C)(C)CC)CC1 (centres undefined) , is 117% (inactive)

growth recorded for this compound, CC(C)N(C(=O)c1ccccc1)C(C)C , is 104% (inactive)

growth recorded for this compound, CN(C)CCOC(=O)Nc1ccc(Cc2ccc(NC(=O)OCCN(C)C)cc2)cc1 , is 102% [100 µM] (inactive)

====

For each entry below, report its growth value.
# Test system: NCI-H322M lung
# Test Protocol: NCI-60 one-dose screen, 48 h (100 = growth as untreated, 0 = no growth, -100 = all killed)
# Experimental Context: 10 µM unless noted
The panel holds about 83,000 compounds, 20% with a hit somewhere; the sample as a whole holds those more often. Active and inactive are the calls of the source. The calls were made as follows: active = growth percent below 10; inactive = the rest.

growth recorded for this compound, OC(CCN1CCCCC1)(c1ccccc1)c1ccccc1 , is 97.6% (inactive)

growth recorded for this compound, CS(=O)(=O)c1ccc(/C=C\C(=O)O)cc1 , is 108% (inactive)

growth recorded for this compound, COc1nc(Nc2cccc(C(F)(F)F)c2)nc(OC)n1 , is 96.9% (inactive)

growth recorded for this compound, Cc1ccc(S(=O)(=O)Oc2ccc3sc4c(CO)ccc(NCCN(C)C)c4c(=O)c3c2)cc1 , is -98.2% [100 µM] (active)

growth recorded for this compound, COc1cc(OC)c2cc(C(=O)c3ccc(C#N)cc3)c(=O)oc2c1 , is 92.3% (inactive)

growth recorded for this compound, O=[N+]([O-])c1ccc(-c2nc(N(CCO)CCO)c3ccccc3n2)o1 , is -31% (active)

Origin of measurements: PubChem BioAssay (NCI)
